System: SK-OV-3
Test: NCI 60 cell line screen
Assay type: cell-based
Conditions: Homo sapiens; SK-OV-3, Ovarian Cancer; read-out: Percent growth
Description: Anticancer profiling over a panel of 60 cancer cell lines was carried out at the National Cancer Institute (NCI), Bethesda, Maryland, USA, https://dtp.cancer.gov/discovery_development/nci-60/methodology.htm (Last visit 22 September 2021), using the standard procedure (detailed procedure is located in the Supplementary Information page 50 s). NCI standard procedure for 60 cell lines assay […] Three dose response parameters are calculated for each experimental agent. […] (TGI) is calculated from Ti = Tz.
Measured activity at 10 µM, listed per entry.
All answers are understood in %, so give the number only.

| compound | metric | observed_measurement |
| --- | --- | --- |
| O=S(=O)(NCCCNc1nccc(-n2cnc3ccccc32)n1)c1ccc(Cl)cc1 [12j] | activity at 10 µM | 117 |
| O=S(=O)(NCCCNc1nccc(-n2cnc3ccccc32)n1)c1ccc(C(F)(F)F)cc1 [12l] | activity at 10 µM | 80.3 |
| O=S(=O)(NCCNc1nccc(-n2cnc3ccccc32)n1)c1ccc(F)cc1 [12b] | activity at 10 µM | 102 |
| O=S(=O)(NCCNc1nccc(-n2cnc3ccccc32)n1)c1ccc(C(F)(F)F)cc1 [12e] | activity at 10 µM | 62.2 |

Can you share its activity at 10 µM? I mean this compound: O=S(=O)(NCCNc1nccc(-n2cnc3ccccc32)n1)c1ccc(Cl)cc1 [12c]
112

Same again, this time with O=S(=O)(NCCNc1nccc(-n2cnc3ccccc32)n1)c1ccc(Br)cc1 [12d]
99.9

----------
Target: CRAF (Homo sapiens)
Sequence (P04049 whole entry): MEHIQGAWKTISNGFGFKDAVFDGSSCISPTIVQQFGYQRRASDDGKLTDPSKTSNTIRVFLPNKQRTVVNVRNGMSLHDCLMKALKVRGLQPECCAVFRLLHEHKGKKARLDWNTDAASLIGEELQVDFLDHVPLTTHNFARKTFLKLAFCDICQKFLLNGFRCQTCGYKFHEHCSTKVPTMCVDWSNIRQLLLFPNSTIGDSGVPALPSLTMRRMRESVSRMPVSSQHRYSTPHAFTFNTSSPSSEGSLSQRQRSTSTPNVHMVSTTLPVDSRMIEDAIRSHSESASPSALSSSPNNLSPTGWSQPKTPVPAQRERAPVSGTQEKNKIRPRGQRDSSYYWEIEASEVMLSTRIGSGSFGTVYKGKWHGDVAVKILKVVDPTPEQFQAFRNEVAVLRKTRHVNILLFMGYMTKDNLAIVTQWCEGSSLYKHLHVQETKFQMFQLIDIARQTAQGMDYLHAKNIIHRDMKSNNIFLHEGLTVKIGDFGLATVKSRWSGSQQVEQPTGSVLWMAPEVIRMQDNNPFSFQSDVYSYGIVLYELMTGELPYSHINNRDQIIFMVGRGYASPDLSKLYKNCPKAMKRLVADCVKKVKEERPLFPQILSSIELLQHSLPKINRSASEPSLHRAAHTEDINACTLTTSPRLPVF
Experiment: Reaction Biology kinase HotSpot enzyme assay
Assay type: biochemical
Conditions: 1 µM ATP; mean ± S.D. of two separate experiments; read-out: IC50 CRAF
metric: pIC50
Lab note: report pIC50 as minus log10 of the concentration in molar units, number only.

Worked set:
| compound | pIC50 |
| --- | --- |
| COc1ccc(S(=O)(=O)NCCNc2nccc(-n3cnc4ccccc43)n2)cc1 [12f] | 5.78 |
| O=S(=O)(NCCCNc1nccc(-n2cnc3ccccc32)n1)c1ccccc1 [12h] | 5.67 |
| O=S(=O)(NCCNc1nccc(-n2cnc3ccccc32)n1)c1ccc(Br)cc1 [12d] | 5.68 |
| O=S(=O)(NCCNc1nccc(-n2cnc3ccccc32)n1)c1ccccc1 [12a] | 5.53 |

Can you share its pIC50? I mean this compound: Cc1ccc(S(=O)(=O)NCCNc2nccc(-n3cnc4ccccc43)n2)cc1 [12g]
5.83

Same again, this time with O=S(=O)(NCCCNc1nccc(-n2cnc3ccccc32)n1)c1ccc(Br)cc1 [12k]
6.00

Same again, this time with O=S(=O)(NCCCNc1nccc(-n2cnc3ccccc32)n1)c1ccc(C(F)(F)F)cc1 [12l]
6.08

Same again, this time with O=S(=O)(NCCCNc1nccc(-n2cnc3ccccc32)n1)c1ccc(Cl)cc1 [12j]
5.99

----------
Test system: IGROV1
Test: NCI 60 cell line screen
Format: cell-based
Settings: Homo sapiens, IGROV-1; IGROV1, Ovarian Cancer; read-out: Percent growth
Measured activity at 10 µM, listed per entry.
All answers are understood in %, so give the number only.

Worked set:
| compound | unit | activity at 10 µM |
| --- | --- | --- |
| O=S(=O)(NCCCNc1nccc(-n2cnc3ccccc32)n1)c1ccc(Cl)cc1 [12j] | % | 114 |
| O=S(=O)(NCCNc1nccc(-n2cnc3ccccc32)n1)c1ccc(Cl)cc1 [12c] | % | 98.2 |
| COc1ccc(S(=O)(=O)NCCCNc2nccc(-n3cnc4ccccc43)n2)cc1 [12m] | % | 91.5 |
| O=S(=O)(NCCNc1nccc(-n2cnc3ccccc32)n1)c1ccc(F)cc1 [12b] | % | 89.3 |

Enter reported activity at 10 µM observed with IGROV1 for O=S(=O)(NCCCNc1nccc(-n2cnc3ccccc32)n1)c1ccc(Br)cc1 [12k]
101
